# Measurement description: Human pharmacokinetics, heart failure subjects, 7.5-hour continuous ascending dose IV infusion
# Condition details: in vivo, infusion rate 3/9/18 ng/kg/min, mean, N = 2
Parameter measured: AUC(0-inf) (ng·h/mL)
Report the value in ng·h/mL with no unit label.

Q: # return recorded AUC(0-inf) for entry H-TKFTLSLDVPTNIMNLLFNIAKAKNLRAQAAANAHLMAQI-NH2 [SEQ ID NO: 1]
A: 19

====

# Measurement description: Human pharmacokinetics, healthy subjects, 7.5-hour continuous ascending dose IV infusion
# Format: in vivo
# Condition details: human, in vivo, healthy subjects, across dose groups; read-out: Mean effective half-life
Parameter measured: half-life

Q: # return recorded half-life for entry H-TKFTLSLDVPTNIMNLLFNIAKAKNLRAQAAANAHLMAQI-NH2 [SEQ ID NO: 1]
A: 1.54 to 14.2 h

====

# Measurement description: Human pharmacokinetics, healthy subjects, 7.5-hour continuous ascending dose IV infusion
# Format: in vivo
# Condition details: human, in vivo, healthy subjects, infusion rate 18/36/72 ng/kg/min, N = 1
# Procedure: In healthy subjects following a 7.5-hour continuous ascending dose IV infusion of h-SCP (SEQ ID NO:1) noncompartmental pharmacokinetic analyses were performed to determine plasma concentrations of h-SCP (SEQ ID NO:1). Plasma h-SCP (SEQ ID NO:1) reached the steady state shortly after initiating the IV infusion (FIG. 16A). […] Within 30 minutes, plasma h-SCP (SEQ ID NO:1) was reduced to ≦20% of the h-SCP (SEQ ID NO:1) level at the end of infusion. […]
Parameter measured: AUC(0-inf) (ng·h/mL)
Report the value in ng·h/mL with no unit label.

Q: # return recorded AUC(0-inf) for entry H-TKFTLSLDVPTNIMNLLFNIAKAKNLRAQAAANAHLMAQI-NH2 [SEQ ID NO: 1]
A: 68.7
